EXPERIMENTAL SYSTEM: T1, recombinant rat MASP1 active protease (amino acids 302-704, C-terminal His Tag) (rat, UniProt Q8CHN8 302-704)
T1 sequence: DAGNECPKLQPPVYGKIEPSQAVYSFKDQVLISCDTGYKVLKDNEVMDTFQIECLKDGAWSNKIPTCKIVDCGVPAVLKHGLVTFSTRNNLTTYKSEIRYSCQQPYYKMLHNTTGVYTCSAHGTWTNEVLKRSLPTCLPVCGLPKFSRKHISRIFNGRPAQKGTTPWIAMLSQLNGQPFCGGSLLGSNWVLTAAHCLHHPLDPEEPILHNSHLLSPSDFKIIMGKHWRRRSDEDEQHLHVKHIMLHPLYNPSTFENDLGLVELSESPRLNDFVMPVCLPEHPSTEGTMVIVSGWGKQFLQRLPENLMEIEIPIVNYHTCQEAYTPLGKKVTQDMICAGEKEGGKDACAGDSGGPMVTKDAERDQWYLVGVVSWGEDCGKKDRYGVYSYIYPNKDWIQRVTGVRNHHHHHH
ASSAY DETAILS: cell-based or functional assay
Bridge positions count the residues as written; N and C are the ends. Square brackets hold non-standard residues; d marks the D form. Ends that are not written are not given here. Chg = N[C@H](C(=O)O)C1CCCCC1; Orn = NCCC[C@H](N)C(=O)O
OBSERVED PROPERTY: rat MASP1 IC50 (nM)
Write the value in nM as a bare number.

Request: Entry under review: [Orn]ICSRSLPP[Chg]CIPD-OH (disulfide 3-11; N-terminus assumed; SMILES CC[C@H](C)[C@H](NC(=O)[C@@H](N)CCCN)C(=O)N[C@H]1CSSC[C@@H](C(=O)N[C@H](C(=O)N2CCC[C@H]2C(=O)N[C@@H](CC(=O)O)C(=O)O)[C@@H](C)CC)NC(=O)[C@H](C2CCCCC2)NC(=O)[C@@H]2CCCN2C(=O)[C@@H]2CCCN2C(=O)[C@H](CC(C)C)NC(=O)[C@H](CO)NC(=O)[C@H](CCCNC(=N)N)NC(=O)[C@H](CO)NC1=O) [Example 225: (Orn)-IC+SRSLPP-(Chg)-C+IPD-OH] . Reported rat MASP1 IC50?
Result: 230

Cited source: patent US20210246166A1
